Just for reference, patent EP2931723B1 is where these values come from.

test system: E. coli JMI 10770; experiment: MIC, antibacterial and synergistic activity; format: cell-based; conditions: Escherichia coli, JMI10770; E. coli JMI 10770 (CTX-M15 (Hyper ESBL)); substance alone

>  <compound>
NCCONC(=O)[C@@H]1CC[C@@H]2CN1C(=O)N2OS(=O)(=O)O

>  <unit_spec>
µg/mL

>  <qualifier_operator>
>

>  <MIC>
16

$$$$
>  <compound>
O=C(NO[C@H]1CCNC1)[C@@H]1CC[C@@H]2CN1C(=O)N2OS(=O)(=O)O

>  <unit_spec>
µg/mL

>  <qualifier_operator>
=

>  <MIC>
8

$$$$
>  <compound>
O=C(NNC(=O)[C@H]1CC[C@H]2CN1C(=O)N2OS(=O)(=O)O)C1CC1 (stereo in doubt)

>  <unit_spec>
µg/mL

>  <qualifier_operator>
=

>  <MIC>
8

$$$$
>  <compound>
C[C@@H](O)[C@H]1C(=O)N2C(C(=O)O)=C(S[C@@H]3CN[C@H](C(=O)N(C)C)C3)[C@H](C)[C@H]12 [Meropenem, meropenem, reference compound]

>  <unit_spec>
µg/mL

>  <qualifier_operator>
≤

>  <MIC>
1

$$$$
